Tested on: Bacillus cereus
Experiment: in vitro antibacterial (ABMF) microdilution susceptibility test
Format: cell-based
Conditions: Mueller-Hinton broth, 37° C., 16-24 hours, read-out: ABMF Test M.I.C. B. cere.
Known MIC of a selection of compounds

compound.smiles | data.value
CC[N+]([O-])(CC)CCn1nc2c3c(c([N+](=O)[O-])ccc31)Nc1ccccc1-2 | > 1000 mg/L
CC(=O)Oc1ccc2c(c1)-c1nn(CCCN(C)C)c3ccc([N+](=O)[O-])c(c13)N2 | < 0.46 mg/L
CCN(CC)CCn1nc2c3c(c([N+](=O)[O-])ccc31)Nc1cc(OC)cc(OC)c1-2.CS(=O)(=O)O.O | < 0.46 mg/L

Query: Consider the compound CCN(CC)CCn1nc2c3c(c([N+](=O)[O-])ccc31)Nc1c(OC)cc(OC)cc1-2 . State its measured MIC.
Result: < 0.46 mg/L
